Tested on: human spermatozoa
assay-explanation: acrosome-reacted (PNA+) sperm after agonist cocktail, percent change vs DMSO (capacitating); higher = more of the measured sperm population than DMSO, for viability, fewer PI-positive (dead) cells than DMSO
test-parameters: incubation time: 3h; 29.9 µM; capacitating + agonist cocktail 1h
Each entry gets False if its acrosome-reacted stays under 20%, and True if its acrosome-reacted is 20% or above.

These recorded examples may help you get a feel for the data.
>>> category_label("OCCN(CCO)c1nc(N2CCCCC2)c2nc(N(CCO)CCO)nc(N3CCCCC3)c2n1")
"True"
>>> category_label("CCCCCCOC(=O)[C@]1(O)C[C@@H]2O[C@@]1(C)n1c3ccccc3c3c4c(c5c6ccccc6n2c5c31)C(=O)NC4")
"False"

q: Quick check: does Cc1cc2c(C(C)C)c(O)c(O)c(C=O)c2c(O)c1-c1c(C)cc2c(C(C)C)c(O)c(O)c(C=O)c2c1O have acrosome-reacted greater than or equal to 20%?
a: False

q: How about O.O.O.OO.OO.[K+].[OH-].[V].c1cnc2c(c1)ccc1cccnc12 ?
a: True

====

Tested on: human spermatozoa
assay-explanation: total motile sperm, percent change vs DMSO (non-capacitating); higher = more of the measured sperm population than DMSO, for viability, fewer PI-positive (dead) cells than DMSO
test-parameters: incubation time: 6h incubation, 9.99 µM
Each entry gets false if its total motile sperm stays under -10%, and true if its total motile sperm is -10% or above.

These recorded examples may help you get a feel for the data.
>>> category_label("Cn1c(=O)c2c(-c3ccccc3)n3c(c2n(C)c1=O)[C@H](c1ccc(Br)o1)Oc1ccc(C(=O)O)cc1-3 [BPO-27]")
"true"
>>> category_label("NC(=O)c1cc(-c2ccc(S(=O)(=O)[C@H]3CC[C@H](Nc4ccc(C(F)(F)F)cn4)CC3)cc2)ccn1 [CCR6 inhibitor 1]")
"false"
>>> category_label("CCOc1ccc(-c2nc(-c3cccc4c3CCC4NCCO)no2)cc1OCC (stereo unspecified) [CYM 5442 hydrchloride]")
"true"
>>> category_label("Nc1ncnc2c1c(-c1cccc(OCc3ccccc3)c1)cn2[C@H]1C[C@@H](CN2CCC2)C1 [NVP-AEW541]")
"true"
>>> category_label("CN(C)CCCn1cc(C2=C(c3c[nH]c4ccccc34)C(=O)NC2=O)c2ccccc21")
"true"

q: Quick check: does CCOCc1nc2c(N)nc3ccccc3c2n1CC(C)(C)O [Resiquimod] have total motile sperm greater than or equal to -10%?
a: false

q: How about CC1(C)CC=C(c2ccccc2)c2cc(/C=C/c3ccc(C(=O)O)cc3)ccc21 ?
a: true

q: How about CC(C)Cn1c(=O)n(C)c(=O)c2[nH]cnc21 [IBMX] ?
a: true

q: How about OCCN(CCO)c1nc(N2CCCCC2)c2nc(N(CCO)CCO)nc(N3CCCCC3)c2n1 [Dipyridamole] ?
a: true

====

Test system: human spermatozoa
assay-explanation: total motile sperm, percent change vs DMSO (non-capacitating); higher = more of the measured sperm population than DMSO, for viability, fewer PI-positive (dead) cells than DMSO
test-parameters: incubation time: 10min incubation, 9.99 µM
Structures can show the parent of a compound that is named as a salt.
Overview of recorded total motile sperm for various compounds
Please reply with the bare figure in % and do not write the unit itself.

>>> observed_result("CCS(=O)(=O)Nc1ccc2c(c1)/C(=C(/Nc1ccc(CN3CCCCC3)cc1)c1ccccc1)C(=O)N2 [Hesperadin hydrochloride]")
-7.06
>>> observed_result("CNc1ccc2oc(C[C@H]3O[C@@]4(CC[C@H]3C)O[C@H]([C@H](C)C(=O)c3ccc[nH]3)[C@H](C)C[C@H]4C)nc2c1C(=O)O")
-57.2
>>> observed_result("NC(=O)c1cccnc1")
0.928

q: Which total motile sperm value is on record for CCCCN1C[C@@H](O)[C@H](O)[C@H](O)[C@@H]1CO ?
a: -1.47

q: How about Nc1nc(Cl)nc2c1ncn2[C@@H]1O[C@H](CO)[C@@H](O)[C@@H]1F ?
a: -6.85

q: How about CN(c1ccccc1CNc1nc(Nc2ccc3c(c2)CC(=O)N3)ncc1C(F)(F)F)S(C)(=O)=O ?
a: -4.4

====

Tested on: human spermatozoa
assay-explanation: progressively motile sperm, percent change vs DMSO (non-capacitating); higher = more of the measured sperm population than DMSO, for viability, fewer PI-positive (dead) cells than DMSO; extreme values may be limits of the assay
test-parameters: incubation time: 6h incubation, 29.9 µM
property-name: progressively motile sperm

# annotated cases, reported progressively motile sperm shown
>>> observed_result("COc1ccc(CCCN2CCC(COC(c3ccccc3)c3ccccc3)CC2)cc1")
"-19.4%"
>>> observed_result("CNC(=O)c1ccccc1Nc1nc(Nc2ccc(N3CCOCC3)cc2OC)ncc1Cl [TAE226]")
"23.8%"
>>> observed_result("C=C[C@@]1(C)CC(=O)[C@@]2(O)[C@](C)(O1)[C@@H](OC(C)=O)[C@@H](O)C1C(C)(C)CC[C@H](O)[C@@]12C (stereo not given in full) [Forskolin]")
"12%"
>>> observed_result("N=C(N)Nc1nc(-c2ccc(Cl)cc2)cs1 [n-[4-(4-Chlorophenyl)-1,3-thiazol-2-yl]guanidine]")
"31%"

Turning now to a further record.
q: Which progressively motile sperm value is on record for CCCCC/C=C\C/C=C\C/C=C\C/C=C\CCCC(=O)NCCO [Anandamide] ?
a: 17.7%

====

Tested on: human spermatozoa
assay-explanation: progressively motile sperm, percent change vs DMSO (non-capacitating); higher = more of the measured sperm population than DMSO, for viability, fewer PI-positive (dead) cells than DMSO; extreme values may be limits of the assay
test-parameters: incubation time: 6h incubation, 9.99 µM
property-name: progressively motile sperm (%)
Please reply with the bare figure in % and do not write the unit itself.

# annotated cases, reported progressively motile sperm shown
>>> observed_result("c1cnc2c(c1)ccc1cccnc12")
-1.34
>>> observed_result("C[C@]1(O)C[C@@H](c2nc(-c3ccc4ccc(-c5ccccc5)nc4c3)c3c(N)nccn32)C1")
93.9
>>> observed_result("N=C(N)Nc1nc(-c2ccc(Cl)cc2)cs1 [n-[4-(4-Chlorophenyl)-1,3-thiazol-2-yl]guanidine]")
19.1
>>> observed_result("O=C(O)c1cccnc1Nc1cccc(C(F)(F)F)c1")
7.86
>>> observed_result("O=C(Nc1ccc([N+](=O)[O-])cc1Cl)c1cc(Cl)ccc1O [Niclosamide]")
-18.2
>>> observed_result("N=C(N)Nc1ccc(C(=O)Oc2ccc3cc(C(=N)N)ccc3c2)cc1")
-23.3
>>> observed_result("COc1cc(C)c2c(Oc3cccc(C(F)(F)F)c3)c(OC)cc(NC(C)CCCN)c2n1 (centres undefined)")
-93.7
>>> observed_result("CCCCCCCCOc1ccc(-c2noc([C@@H]3CCCN3C(=N)N)n2)cc1C(F)(F)F")
-99.9

q: Which progressively motile sperm value is on record for O=C(O)c1ccc(/C=C2/SC(=S)N(c3cccc(C(F)(F)F)c3)C2=O)cc1 ?
a: -2.41

q: How about CC(C)(C)c1ccc(S(=O)(=O)Nc2ccc(OC(F)(F)F)c(F)c2-c2ccc(C(=O)O)c3ncccc23)cc1F ?
a: 7.11

q: How about O.O.O.OO.OO.[K+].[OH-].[V].c1cnc2c(c1)ccc1cccnc12 ?
a: 3.08

q: How about COC(=O)[C@]1(C)CC[C@]2(C)CC[C@]3(C)C4=CC=C5C(=CC(=O)C(O)=C5C)[C@]4(C)CC[C@@]3(C)[C@@H]2C1 ?
a: -100

q: How about Nc1nc(Cl)nc2c1ncn2[C@@H]1O[C@H](CO)[C@@H](O)[C@@H]1F ?
a: 46.2

q: How about Nc1ncnc2c1c(-c1cccc(OCc3ccccc3)c1)cn2[C@H]1C[C@@H](CN2CCC2)C1 ?
a: 48.5

====

Overview of recorded HepG2 toxicity for various compounds
Tested on: HepG2
assay-explanation: HepG2 toxicity (resazurin), effect normalised to DMSO (DMSO = 0); higher = more features changed / larger toxic effect
test-parameters: incubation time: 70h incubation; 30 µM
Number first, unit second.

q: Which HepG2 toxicity value is on record for COC(=O)[C@]1(C)CC[C@]2(C)CC[C@]3(C)C4=CC=C5C(=CC(=O)C(O)=C5C)[C@]4(C)CC[C@@]3(C)[C@@H]2C1 ?
a: 103%

====

System: HeLa
assay-explanation: HeLa toxicity: nuclei-count effect normalised to DMSO (DMSO = 0); higher = more features changed / larger toxic effect
test-parameters: incubation time: 24h incubation; 29.9 µM
Structures can show the parent of a compound that is named as a salt.
property-name: HeLa toxicity: nuclei-count effect normalised (%)
Please reply with the bare figure in % and do not write the unit itself.

>>> observed_result("CCCCN1C[C@@H](O)[C@H](O)[C@H](O)[C@@H]1CO")
-3.87
>>> observed_result("CCCCCCCCCCCCCCCCOCC(COCC(F)(F)F)OP(=O)([O-])OC (stereo not drawn)")
1
>>> observed_result("Cc1ccc(S(=O)(=O)c2c(N)n(CC(O)c3ccc([N+](=O)[O-])cc3)c3nc4ccccc4nc23)cc1 (stereo not drawn)")
44.6
>>> observed_result("COC(=O)c1c(C)[nH]c(C)c1C(=O)c1ccccc1Cc1ccccc1")
0.735
>>> observed_result("CCOc1ccc(-c2nc(-c3cccc4c3CCC4NCCO)no2)cc1OCC (stereo not drawn) [CYM 5442 hydrchloride]")
18

q: Which HeLa toxicity: nuclei-count effect normalised value is on record for CCOC(=O)CSc1nc(=O)c(NCC(=O)OC)n[nH]1 ?
a: -5.81

q: How about N=C(N)Nc1nc2ccccc2[nH]1 ?
a: -4.21

q: How about O=C(N1CCCCC1)N1CCCCC1Cc1ccccc1 (stereo not drawn) ?
a: -5.74

q: How about O.O.O.OO.OO.[K+].[OH-].[V].c1cnc2c(c1)ccc1cccnc12 ?
a: 34.7

q: How about CC(C)[C@H]1c2ccc(F)cc2CC[C@@]1(CCN(C)CCCc1nc2ccccc2[nH]1)OC(=O)C1CC1 [NNC 55-0396 dihydrochloride] ?
a: 95.5

q: How about CN(C)CCCn1cc(C2=C(c3c[nH]c4ccccc34)C(=O)NC2=O)c2ccccc21 ?
a: 3.61

q: How about NC(=O)c1cc(-c2ccc(S(=O)(=O)[C@H]3CC[C@H](Nc4ccc(C(F)(F)F)cn4)CC3)cc2)ccn1 ?
a: 82.3
